# assay.procedure: Selectivity index, ratio of CC50 for African green monkey Vero A cells to EC50 for chikungunya virus 899 infected in African green monkey Vero A cells
# Assay type: toxicity
# condition.context: read-out: Ratio CC50/EC50
The following compounds are shown together with reported selectivity ratio values.
test.readout: selectivity ratio

| cpd.smiles | test.readout | reported |
| --- | --- | --- |
| COc1ccc2oc(=O)c(CSc3nc(N)nc4c3nc(SCc3cc5cc(OC)ccc5oc3=O)n4[C@@H]3O[C@H](CO)[C@@H](O)[C@H]3O)cc2c1 | selectivity ratio | > 21.7 |
| Cc1ccc2oc(=O)c(CSc3nc(N)nc4c3nc(SCc3cc5cc(C)ccc5oc3=O)n4[C@@H]3O[C@H](CO)[C@@H](O)[C@H]3O)cc2c1 | selectivity ratio | 1.98 |
| COc1cccc2cc(CSc3nc(N)nc4c3nc(SCc3cc5cccc(OC)c5oc3=O)n4[C@@H]3O[C@H](CO)[C@@H](O)[C@H]3O)c(=O)oc12 | selectivity ratio | 9.37 |
| COc1ccc2oc(=O)c(CSc3nc(N)nc4c3nc(SCc3cccc5ccccc35)n4[C@@H]3O[C@H](CO)[C@@H](O)[C@H]3O)cc2c1 | selectivity ratio | > 16.3 |

Where do the numbers come from? From ChEMBL document CHEMBL4400522.
